From: patent US8470851B2

SYSTEM: BaF3 cells transfected with the Bcr-Abl T315I mutant (Homo sapiens, UniProt P00519, T315I, cells depend on it)
Construct: fused on or other part: P11274 (Breakpoint cluster region protein)
ASSAY_PROCEDURE: Ba/F3 cell proliferation assay, Bcr-Abl T315I (CellTiter 96 AQueous One);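 further: murine pro-B Ba/F3 line, tetrazolium turned into formazan and read by absorbance, compound dilution series, values as percent of DMSO-treated control, IC50 from fitted curves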
Type: cell-based, murine
EXPERIMENTAL_SETUP: Ba/F3 cells expressing Bcr-Abl T315I, 3 days incubation; read-out: T315l cell proliferation
READOUT_TYPE: GI50

// solved cases for GI50 follow
>  <ENTRY_SMILES>
Cc1ccc(C(=O)Nc2cc(-n3cnc(C#N)c3)cc(C(F)(F)F)c2)cc1C#Cc1cnc2ccccn12

>  <READOUT_TYPE>
GI50

>  <OBSERVED>
< 1000 nM

$$$$
>  <ENTRY_SMILES>
Cc1ccc(C(=O)Nc2ccc(CN3CCCC3)c(C(F)(F)F)c2)cc1C#Cc1cnc2cnccn12

>  <READOUT_TYPE>
GI50

>  <OBSERVED>
< 1000 nM

$$$$
>  <ENTRY_SMILES>
CN1CCN(Cc2ccc(NC(=O)c3ccc(F)c(C#Cc4cnc5ccccn45)c3)cc2C(F)(F)F)CC1

>  <READOUT_TYPE>
GI50

>  <OBSERVED>
< 1000 nM

$$$$
>  <ENTRY_SMILES>
Cc1ccc(C(=O)Nc2cc(-n3cnc(CN4CCCC4)c3)cc(C(F)(F)F)c2)cc1C#Cc1cnc2cnccn12

>  <READOUT_TYPE>
GI50

>  <OBSERVED>
< 1000 nM

$$$$
>  <ENTRY_SMILES>
Cc1ccc(C(=O)Nc2ccc(CN3CCN(C)CC3)c(C(F)(F)F)c2)cc1C#Cc1cnn2cccnc12

>  <READOUT_TYPE>
GI50

>  <OBSERVED>
< 1000 nM

$$$$

Lab note: next compound to report on.
Returns the measured GI50 for the input compound. Input: CN1CCN(Cc2ccc(NC(=O)c3ccc(F)c(C#Cc4cnc5cnccn45)c3)cc2C(F)(F)F)CC1
< 1000 nM
